Reference source: patent US20040180051A1

Biological target: T1, human tissue factor (human TF) on human bladder carcinoma cells J82 (human, UniProt P13726 33-295)
T1 construct: whole, on cells; Target of the cell ELISA; also called the antigen
Experiment: cell ELISA on fixed J82 cells;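 also: measures antigen binding in a cell ELISA on J82 cells grown one day in 96-well plates and fixed with 4% paraformaldehyde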
reported.endpoint: binding result

humanized H chain version “c” combined with a chimeric L chain (antibody, V domains shown, expressed in COS-7; also called c-ch) VH: QVQLLESGAVLARPGTSVKISCKASGFNIKDYYMHWVKQRPGQGLEWIGGNDPANGHSMYDPKFQGRVTMLVDTSKNQFSLRLSSVTAADTAVYYCARDSGYAMDYWGQGTLVTVSS VL: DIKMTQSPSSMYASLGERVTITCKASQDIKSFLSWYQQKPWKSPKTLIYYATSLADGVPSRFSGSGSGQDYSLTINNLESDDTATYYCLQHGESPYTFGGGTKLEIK
binds
humanized H chain version “b” combined with a chimeric L chain (antibody, V domains shown, expressed in COS-7; also called b-ch) VH: QVQLLESGAVLARPGTSVKISCKASGFNIKDYYMHWVKQRPGQGLEWIGGNDPANGHSMYDPKFQGRVTITADTSTNTAYMELSSLRSEDTAIYYCARDSGYAMDYWGQGTLVTVSS VL: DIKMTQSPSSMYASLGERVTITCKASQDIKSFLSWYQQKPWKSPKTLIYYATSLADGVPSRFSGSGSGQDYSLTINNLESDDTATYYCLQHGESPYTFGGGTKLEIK
binds
humanized H chain version “d” combined with a chimeric L chain (antibody, V domains shown, expressed in COS-7; also called d-ch) VH: QVQLLESGAVLARPGTSVKISCKASGFNIKDYYMHWVKQRPGQGLEWIGGNDPANGHSMYDPKFQGRVTITADESTSTAYMELSSLRSEDSAVYFCARDSGYAMDYWGQGTLVTVSS VL: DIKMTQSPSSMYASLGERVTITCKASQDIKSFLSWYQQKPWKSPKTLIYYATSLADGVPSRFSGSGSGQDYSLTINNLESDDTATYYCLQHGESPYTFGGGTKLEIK
binds
